pIC50: −log10 of the molar value.
readoutLabel: pIC50

Tested on MMP-13 (collagenase-3) (Homo sapiens, UniProt P45452), the item "O=C(NO)[C@H]1CN(S(=O)(=O)c2cccc3cnccc23)CCN1S(=O)(=O)c1cc(F)c(Oc2ccc(Cl)cc2)c(F)c1" showed pIC50 equal to > 7.30

# "O=C(NO)[C@H]1CN(C(=O)N2CCOCC2)CCN1S(=O)(=O)c1cc(F)c(Oc2ccc(Cl)cc2)c(F)c1" with MMP-13 (collagenase-3) (Homo sapiens, UniProt P45452): pIC50 is > 7.30

MMP-13 (collagenase-3) (Homo sapiens, UniProt P45452) data for "O=C(NO)[C@H]1CN(C(=O)OCCN2CCCC2)CCN1S(=O)(=O)c1cc(F)c(Oc2ccc(Cl)cc2)c(F)c1" ; its pIC50: > 7.30

Measured on MMP-13 (collagenase-3) (Homo sapiens, UniProt P45452), "COCCOC(=O)N1CCN(S(=O)(=O)c2cc(F)c(Oc3ccc(F)cc3)c(F)c2)[C@@H](C(=O)NO)C1" has a documented pIC50 of > 7.30

pIC50 value, target or system MMP-13 (collagenase-3) (Homo sapiens, UniProt P45452), for "O=C(NO)[C@H]1CN(C(=O)C(=O)N2CCCCC2)CCN1S(=O)(=O)c1cc(F)c(Oc2ccc(Cl)cc2)c(F)c1" : > 7.30

Let me check: "O=C(NO)[C@H]1CN(C(=O)c2cc(F)c(O)c(F)c2)CCN1S(=O)(=O)c1cc(F)c(Oc2ccc(Cl)cc2)c(F)c1" , system MMP-13 (collagenase-3) (Homo sapiens, UniProt P45452), measured pIC50 is > 7.30

Case "CCCC(CCC)C(=O)N1CCN(S(=O)(=O)c2cc(F)c(Oc3ccc(Cl)cc3)c(F)c2)[C@@H](C(=O)NO)C1" , MMP-13 (collagenase-3) (Homo sapiens, UniProt P45452), pIC50 recorded as 6.00 to 7.30

Form field, pIC50 with MMP-13 (collagenase-3) (Homo sapiens, UniProt P45452), item "O=C(O)CN1CCN(S(=O)(=O)c2cc(F)c(Oc3ccc(Cl)cc3)c(F)c2)[C@@H](C(=O)NO)C1" : 6.00 to 7.30

Lab entry: MMP-13 (collagenase-3) (Homo sapiens, UniProt P45452) assay, molecule "O=C(NO)[C@H]1CN(S(=O)(=O)c2cccnc2O)CCN1S(=O)(=O)c1cc(F)c(Oc2ccc(Cl)cc2)c(F)c1" , pIC50 = > 7.30

* * *

readoutLabel: IC50

Result for "O=C(NO)[C@H]1CN(S(=O)(=O)CCN2CCCCC2)CCN1S(=O)(=O)c1cc(F)c(Oc2ccc(Cl)cc2)c(F)c1" , tested on MMP-13 (collagenase-3) (Homo sapiens, UniProt P45452), IC50: < 0.05 µM

Item "CCOC(=O)N1CCN(CC(=O)N2CCN(S(=O)(=O)c3cc(F)c(Oc4ccc(Cl)cc4)c(F)c3)[C@@H](C(=O)NO)C2)CC1" was tested on MMP-13 (collagenase-3) (Homo sapiens, UniProt P45452); the reported IC50 is < 0.05 µM

MMP-13 (collagenase-3) (Homo sapiens, UniProt P45452) data for "COCCN1CCN(S(=O)(=O)c2cc(F)c(Oc3ccc(Cl)cc3)c(F)c2)[C@@H](C(=O)NO)C1" ; its IC50: < 0.05 µM

The reported MMP-13 (collagenase-3) (Homo sapiens, UniProt P45452) IC50 of "COCCOC(=O)N1CCN(S(=O)(=O)c2ccc(Oc3ccc4c(c3)CCCC4)nc2)[C@@H](C(=O)NO)C1" is < 0.05 µM

Given the molecule "COCCOC(=O)N1CCN(S(=O)(=O)c2ccc(Oc3ccc(Cl)cc3)c(F)c2)[C@@H](C(=O)NO)C1" and test system MMP-13 (collagenase-3) (Homo sapiens, UniProt P45452), the measured IC50 is < 0.05 µM

Entry "O=C(NO)[C@H]1CN(C(=O)N2CCOCC2)CCN1S(=O)(=O)c1ccc(Oc2ccc(F)cc2)c(F)c1" : IC50 on MMP-13 (collagenase-3) (Homo sapiens, UniProt P45452) = < 0.05 µM

The molecule "C=CCN1CCN(S(=O)(=O)c2cc(F)c(Oc3ccc(Cl)cc3)c(F)c2)[C@@H](C(=O)NO)C1" , tested on MMP-13 (collagenase-3) (Homo sapiens, UniProt P45452), showed IC50 of < 0.05 µM
